MEASUREMENT DESCRIPTION: Spectroscopic measurements (absorption, emission, quantum yield, extinction coefficient)
Type: physicochemical
SETUP CONDITIONS: difference of emission and absorption maxima
# note: exactly 30 is not below, so it is Criterion not met; use Criterion met for Flu-Abs strictly under it

| STRUCTURE SMILES | QUALITATIVE LABEL |
| --- | --- |
| CC1=CC(/C=C/c2ccccc2I)=[N+]2C1=C(c1ccc(NC(=O)CCl)cc1)c1cccn1[B-]2(F)F | Criterion met |
| COc1cccc(/C=C/C2=[N+]3C(=C(c4ccc(NC(=O)CCl)cc4)c4cccn4[B-]3(F)F)C(C)=C2)c1F | Criterion met |
| CC1=CC(/C=C/c2c(C)nn(C)c2C)=[N+]2C1=C(c1ccc(NC(=O)CCl)cc1)c1cccn1[B-]2(F)F | Criterion not met |
| COc1ccc(/C=C/c2cc(C)c3n2[B-](F)(F)[N+]2=CC=CC2=C3c2ccc(NC(=O)CCl)cc2)c(Cl)c1OC | Criterion met |
| CC1=CC(/C=C/c2ccccc2Oc2ccc(F)cc2)=[N+]2C1=C(c1ccc(NC(=O)CCl)cc1)c1cccn1[B-]2(F)F | Criterion met |
| COc1cc(/C=C/c2cc(C)c3n2[B-](F)(F)[N+]2=CC=CC2=C3c2ccc(NC(=O)CCl)cc2)ccc1OCCN1CCCC1 | Criterion not met |
| Cc1cc(/C=C/c2cc(F)ccc2O)n2c1C(c1ccc(NC(=O)CCl)cc1)=C1C=CC=[N+]1[B-]2(F)F | Criterion met |
| CC1=CC(/C=C/c2ccc(C)cc2C)=[N+]2C1=C(c1ccc(NC(=O)CCl)cc1)c1cccn1[B-]2(F)F | Criterion not met |
| Cc1cc(/C=C/c2ccc(F)c(Oc3ccccc3)c2)n2c1C(c1ccc(NC(=O)CCl)cc1)=C1C=CC=[N+]1[B-]2(F)F | Criterion met |
| CC(=O)Oc1ccc(/C=C/c2cc(C)c3n2[B-](F)(F)[N+]2=CC=CC2=C3c2ccc(NC(=O)CCl)cc2)cc1 | Criterion met |
| Cc1cc(/C=C/c2ccc(SC(F)(F)F)cc2)n2c1C(c1ccc(NC(=O)CCl)cc1)=C1C=CC=[N+]1[B-]2(F)F | Criterion met |
| CC1=CC(/C=C/c2cccc(B(O)O)c2)=[N+]2C1=C(c1ccc(NC(=O)CCl)cc1)c1cccn1[B-]2(F)F | Criterion met |
| Cc1cc(/C=C/c2cc(Cl)ccc2Cl)n2c1C(c1ccc(NC(=O)CCl)cc1)=C1C=CC=[N+]1[B-]2(F)F | Criterion met |
| Cc1cc(/C=C/c2ccc(Br)cc2)n2c1C(c1ccc(NC(=O)CCl)cc1)=C1C=CC=[N+]1[B-]2(F)F | Criterion met |

====

MEASUREMENT DESCRIPTION: Spectroscopic measurements (absorption, emission, quantum yield, extinction coefficient)
Assay type: physicochemical
SETUP CONDITIONS: BDNCA library, fluorescence emission
In this section we review reported Flu values for a set of compounds.
REPORTED METRIC: Flu

| STRUCTURE SMILES | REPORTED METRIC | REPORTED |
| --- | --- | --- |
| CC1=CC(/C=C/c2ccc(-c3ccccc3)s2)=[N+]2C1=C(c1ccc(NC(=O)CCl)cc1)c1cccn1[B-]2(F)F | Flu | 630 |
| CC1=CC(/C=C/c2cc(C)c(OCc3ccccc3)c(C)c2)=[N+]2C1=C(c1ccc(NC(=O)CCl)cc1)c1cccn1[B-]2(F)F | Flu | 585 |
| CCCOc1ccc(/C=C/c2cc(C)c3n2[B-](F)(F)[N+]2=CC=CC2=C3c2ccc(NC(=O)CCl)cc2)cc1 | Flu | 598 |
| CC1=CC(/C=C/c2ccc(C#N)cc2)=[N+]2C1=C(c1ccc(NC(=O)CCl)cc1)c1cccn1[B-]2(F)F | Flu | 578 |
| CCOc1ccc(/C=C/C2=[N+]3C(=C(c4ccc(NC(=O)CCl)cc4)c4cccn4[B-]3(F)F)C(C)=C2)cc1OC | Flu | 623 |
| COc1cc(/C=C/C2=[N+]3C(=C(c4ccc(NC(=O)CCl)cc4)c4cccn4[B-]3(F)F)C(C)=C2)cc(OC)c1 | Flu | 576 |
| CC1=CC(/C=C/c2ccc(Cl)cc2)=[N+]2C1=C(c1ccc(NC(=O)CCl)cc1)c1cccn1[B-]2(F)F | Flu | 576 |
| COc1cccc(F)c1/C=C/C1=[N+]2C(=C(c3ccc(NC(=O)CCl)cc3)c3cccn3[B-]2(F)F)C(C)=C1 | Flu | 581 |
| COc1ccc(Oc2ccc(/C=C/c3cc(C)c4n3[B-](F)(F)[N+]3=CC=CC3=C4c3ccc(NC(=O)CCl)cc3)cc2)cc1 | Flu | 589 |
| Cc1ccc(/C=C/c2cc(C)c3n2[B-](F)(F)[N+]2=CC=CC2=C3c2ccc(NC(=O)CCl)cc2)cc1[N+](=O)[O-] | Flu | 575 |
| CC1=CC(/C=C/c2ccc(-c3cccc(Cl)c3)o2)=[N+]2C1=C(c1ccc(NC(=O)CCl)cc1)c1cccn1[B-]2(F)F | Flu | 637 |
| CC1=CC(/C=C/c2c(C)cccc2Cl)=[N+]2C1=C(c1ccc(NC(=O)CCl)cc1)c1cccn1[B-]2(F)F | Flu | 571 |
| COc1cc(Br)cc(/C=C/C2=[N+]3C(=C(c4ccc(NC(=O)CCl)cc4)c4cccn4[B-]3(F)F)C(C)=C2)c1OC | Flu | 577 |
| Cc1ccc(/C=C/c2cc(C)c3n2[B-](F)(F)[N+]2=CC=CC2=C3c2ccc(NC(=O)CCl)cc2)s1 | Flu | 608 |
| CCCCOc1ccc(/C=C/C2=[N+]3C(=C(c4ccc(NC(=O)CCl)cc4)c4cccn4[B-]3(F)F)C(C)=C2)cc1 | Flu | 598 |
| CCOc1cccc(/C=C/C2=[N+]3C(=C(c4ccc(NC(=O)CCl)cc4)c4cccn4[B-]3(F)F)C(C)=C2)c1O | Flu | 578 |
| CC1=CC(/C=C/c2cccc(O)c2Cl)=[N+]2C1=C(c1ccc(NC(=O)CCl)cc1)c1cccn1[B-]2(F)F | Flu | 574 |
| CC1=CC(/C=C/c2ccc3ccccc3c2)=[N+]2C1=C(c1ccc(NC(=O)CCl)cc1)c1cccn1[B-]2(F)F | Flu | 584 |
| COc1ccc(/C=C/C2=[N+]3C(=C(c4ccc(NC(=O)CCl)cc4)c4cccn4[B-]3(F)F)C(C)=C2)cc1OC | Flu | 618 |
| CC1=CC(/C=C/c2cccc(O)c2)=[N+]2C1=C(c1ccc(NC(=O)CCl)cc1)c1cccn1[B-]2(F)F | Flu | 575 |
| CCOC(OCC)c1ccc(/C=C/C2=[N+]3C(=C(c4ccc(NC(=O)CCl)cc4)c4cccn4[B-]3(F)F)C(C)=C2)cc1 | Flu | 581 |
| Cc1cc(/C=C/c2ccc(OCc3ccc(Br)cc3)cc2)n2c1C(c1ccc(NC(=O)CCl)cc1)=C1C=CC=[N+]1[B-]2(F)F | Flu | 580 |
| COc1cc(/C=C/C2=[N+]3C(=C(c4ccc(NC(=O)CCl)cc4)c4cccn4[B-]3(F)F)C(C)=C2)cc(Br)c1OC | Flu | 582 |
| COc1cc(/C=C/C2=[N+]3C(=C(c4ccc(NC(=O)CCl)cc4)c4cccn4[B-]3(F)F)C(C)=C2)cc(OC)c1O | Flu | 580 |
| COc1ccccc1/C=C/c1cc(C)c2n1[B-](F)(F)[N+]1=CC=CC1=C2c1ccc(NC(=O)CCl)cc1 | Flu | 587 |

====

MEASUREMENT DESCRIPTION: Spectroscopic measurements (absorption, emission, quantum yield, extinction coefficient)
Type: physicochemical
SETUP CONDITIONS: extinction coefficient, BDNCA library; in M-1 cm-1 (unit assumed)

| STRUCTURE SMILES | ε |
| --- | --- |
| COc1cc(/C=C/c2cc(C)c3n2[B-](F)(F)[N+]2=CC=CC2=C3c2ccc(NC(=O)CCl)cc2)ccc1OCCN1CCCC1 | 25,538 |
| CC1=CC(/C=C/c2cccs2)=[N+]2C1=C(c1ccc(NC(=O)CCl)cc1)c1cccn1[B-]2(F)F | 61,510 |
| COc1ccc(/C=C/C2=[N+]3C(=C(c4ccc(NC(=O)CCl)cc4)c4cccn4[B-]3(F)F)C(C)=C2)cc1[N+](=O)[O-] | 34,874 |
| CC1=CC(/C=C/c2c[nH]c3ccccc23)=[N+]2C1=C(c1ccc(NC(=O)CCl)cc1)c1cccn1[B-]2(F)F | 21,968 |
| Cc1cc(/C=C/c2ccc(SC(F)(F)F)cc2)n2c1C(c1ccc(NC(=O)CCl)cc1)=C1C=CC=[N+]1[B-]2(F)F | 41,190 |
| Cc1cc(/C=C/c2ccc(F)c(Oc3ccccc3)c2)n2c1C(c1ccc(NC(=O)CCl)cc1)=C1C=CC=[N+]1[B-]2(F)F | 57,117 |
| CC1=CC(/C=C/c2ccc(Cl)c(F)c2)=[N+]2C1=C(c1ccc(NC(=O)CCl)cc1)c1cccn1[B-]2(F)F | 47,506 |
